protocol.description: NFAT Signaling Pathway (AID 444);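 note: carbachol stimulus at about its EC50 of 1 µM final; % is set by controls: 0 for no effect and ±100 for the full control effect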
cond: Jurkat NFAT-bla M1, carbachol, beta-lactamase ratio, 5 h; at 17.2 µM (top of the series)
Inconclusive results are not listed.
quantity.name: activity change, negative = inhibition (%)
One number for each entry, in %.

Field: example entries. Status: answers known.
>>> recorded_measurement("N=C(N=C(N)N)N1CCOCC1")
-6.61
>>> recorded_measurement("CCC1=C(C)CN(C(=O)NCCc2ccc(S(=O)(=O)NC(=O)NC3CCC(C)CC3)cc2)C1=O (stereo not drawn)")
4.19
>>> recorded_measurement("NS(=O)(=O)c1cc(C(=O)O)c(NCc2ccco2)cc1Cl")
-8.48
>>> recorded_measurement("NNc1nncc2ccccc12")
-29.1
>>> recorded_measurement("CN1C(C(=O)Nc2ccccn2)=C(O)c2sccc2S1(=O)=O")
9.83

Give measured activity change, negative = inhibition for every item shown.
1. CCCCN(CCCC)CCC(O)c1cc2c(Cl)cc(Cl)cc2c2cc(C(F)(F)F)ccc12 (stereo not drawn)
2. CC(C)Oc1ccc2c(=O)c(-c3ccccc3)coc2c1
3. O=c1c(O)c(-c2ccc(O)cc2O)oc2cc(O)cc(O)c12

Outgoing:
[14.4, 5.32, 10]
